Biological target: human KMO (Homo sapiens)
Sequence (O15229 whole entry): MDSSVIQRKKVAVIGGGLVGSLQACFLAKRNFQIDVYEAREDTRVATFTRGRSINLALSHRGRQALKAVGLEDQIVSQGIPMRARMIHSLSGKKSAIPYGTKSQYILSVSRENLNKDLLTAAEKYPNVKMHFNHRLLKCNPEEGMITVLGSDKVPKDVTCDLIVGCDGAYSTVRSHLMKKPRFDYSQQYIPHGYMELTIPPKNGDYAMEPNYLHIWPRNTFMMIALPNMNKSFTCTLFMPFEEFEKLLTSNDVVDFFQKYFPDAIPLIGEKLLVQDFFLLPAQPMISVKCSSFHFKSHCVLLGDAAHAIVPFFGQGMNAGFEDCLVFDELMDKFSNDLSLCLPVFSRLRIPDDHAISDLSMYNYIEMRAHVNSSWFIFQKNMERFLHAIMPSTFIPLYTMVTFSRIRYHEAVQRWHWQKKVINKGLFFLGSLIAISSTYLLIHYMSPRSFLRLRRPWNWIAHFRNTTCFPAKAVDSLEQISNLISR
Assay: KMO MS Rapidfire assay (RapidFire High-Throughput Mass Spectrometry, Method 1 or Method 2)
Settings: median pIC50, in at least one of the MS Rapidfire assays (Method 1 or 2); isolated human KMO-membranes, 10 μM Kynurenine, 200 μM NADPH; values exemplary only
molecules and their reported IC50
Observable: IC50

>>> df
                                   molecule     result
0  CCC(Oc1cc2c(cc1Cl)N(CCC(=O)O)C(=O)CO2)c1ncc(Cl)cn1 (single isomer, unassigned)  ≤ 31.6 nM
1  CCC(Oc1cc2c(cc1Cl)N(CCC(=O)O)C(=O)CO2)c1ncc(C)cn1 (single isomer, unassigned)  ≤ 31.6 nM
2  CCC(Oc1cc2c(cc1Cl)N(CCC(=O)O)C(=O)CO2)c1cccnn1 (single isomer, unassigned)  ≤ 31.6 nM

Where do these numbers come from? They come from patent US10611756B2.
